measured on: baNadD (Bacillus anthracis)
Sequence (C3L5T6 whole entry, looked up): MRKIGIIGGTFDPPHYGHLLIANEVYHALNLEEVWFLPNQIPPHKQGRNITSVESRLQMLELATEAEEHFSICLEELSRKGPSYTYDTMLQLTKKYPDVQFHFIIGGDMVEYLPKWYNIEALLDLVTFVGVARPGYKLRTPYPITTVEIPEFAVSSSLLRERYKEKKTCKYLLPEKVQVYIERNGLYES
procedure details: biochemical
Type: biochemical
run parameters: read-out: INHIBITION (%) B. anthracis
inhibition at 50 µM values, listed per item
Output spec: scalar in %, unitless text.

Examples with their reported inhibition at 50 µM follow.
{"molecule": "Nc1c(C(=O)Nc2ccc(F)c(F)c2)sc2nc(-c3cccs3)ccc12 [03_14]", "unit of measurement": "%", "inhibition at 50 µM": 92}
{"molecule": "COc1ccc(N/C=C2\\C(=O)Nc3ccccc32)cc1 [15_25]", "unit of measurement": "%", "inhibition at 50 µM": 16}
{"molecule": "Nc1c(C(=O)Nc2ccc(F)cc2)sc2nc(-c3ccc(F)cc3)ccc12 [03_25]", "unit of measurement": "%", "inhibition at 50 µM": 1}
{"molecule": "Nc1c(C(=O)Nc2cccc(Cl)c2)sc2nc(-c3ccncc3)ccc12 [03_17]", "unit of measurement": "%", "inhibition at 50 µM": 64}
{"molecule": "Nc1c(C(=O)Nc2c(Cl)cccc2Cl)sc2nc(-c3cccnc3)ccc12 [03_20]", "unit of measurement": "%", "inhibition at 50 µM": 11}

(Q) Give the reported inhibition at 50 µM for this molecule. Nc1c(C(=O)Nc2cccc(Cl)c2)sc2nc(-c3ccc(F)cc3)ccc12 [03_16]
(A) 83

(Q) Return the recorded inhibition at 50 µM value; entry: Cc1cccc(C)c1N/C=C1\C(=O)Nc2ccccc21 [15_36]
(A) 11

----------
Entries and their IC50
measured on: baNadD (Bacillus anthracis)
procedure details: biochemical
Type: biochemical
run parameters: IC50 baNadD
Unit µM implied. Number only.

{"compound": "Cc1ccc(N/C=C2\\C(=O)Nc3ccccc32)cc1C [15_14]", "experimental endpoint": "IC50", "unit of measurement": "µM", "experimental result": 74}

(Q) Please indicate IC50 recorded for Nc1c(C(=O)Nc2ccc(Cl)cc2Cl)sc2nc(-c3ccncc3)ccc12 [03_04]
(A) 21

(Q) Using known records, supply IC50 for O=C1Nc2ccccc2/C1=C/Nc1ccc(Br)cc1F [compound 015]
(A) 16

(Q) Identify the reported IC50 for the following entry. Nc1c(C(=O)Nc2ccc(F)c(Cl)c2)sc2nc(-c3ccncc3)ccc12 [03_22]
(A) 39

(Q) Read off the recorded IC50 for Nc1c(C(=O)Nc2cc(Cl)cc(Cl)c2)sc2nc(-c3cccs3)ccc12 [03_03]
(A) 21

(Q) Specify IC50 for Nc1c(C(=O)Nc2cc(F)ccc2F)sc2nc(-c3cccs3)ccc12 [03_18] and stop.
(A) 14

(Q) Read off the recorded IC50 for O=C1Nc2ccccc2/C1=C/Nc1ccc(Br)cc1 [15_09]
(A) 111

(Q) Identify measured IC50 corresponding to Nc1c(C(=O)Nc2ccc(Cl)cc2Cl)sc2nc(-c3cccs3)ccc12 [03_11]
(A) 13

(Q) Query IC50 for Nc1c(C(=O)Nc2cc(F)ccc2F)sc2nc(-c3cccs3)ccc12 [03_01]
(A) 25

(Q) Assign IC50 to the following record: Nc1c(C(=O)Nc2cccc(Cl)c2)sc2nc(-c3ccc(F)cc3)ccc12 [03_16]
(A) 35

(Q) Using known records, supply IC50 for O=C(CCC(=O)Nc1ccc(I)cc1)N/N=C/c1c2ccccc2cc2ccccc12 [compound 001]
(A) 21

(Q) Note down IC50 recorded for O=C(CCC(=O)Nc1ccc(Br)cc1)N/N=C/C=C/c1ccccc1 [01_12]
(A) 48

(Q) Determine its reported IC50: Cc1ccccc1N/C=C1\C(=O)Nc2ccccc21 [15_31]
(A) 112

----------
measured on: ecNadD (Escherichia coli (strain K12))
procedure details: biochemical
Assay type: biochemical
Is […]. coli at least 20%? Then 1.0. If not, 0.0.

{"item smiles": "NS(=O)(=O)c1ccc(NC(=O)c2cc3cc(Br)ccc3oc2=O)cc1", "group": 0.0}
{"item smiles": "CCOc1cc(/C=N/O)cc(I)c1O", "group": 0.0}
{"item smiles": "O=C(NNC(=O)c1ccco1)c1cccc(I)c1", "group": 1.0}
{"item smiles": "O=C(O)c1ccc(-c2ccc(C(=O)O)c(C(=O)O)c2)cc1C(=O)O", "group": 0.0}

(Q) Quick check, […]. coli >= 20%? O=C(O)c1cc(C(=O)O)cc(N2C(=O)c3ccc(C(=O)O)cc3C2=O)c1
(A) 0.0

----------
measured on: ecNadD (Escherichia coli (strain K12))
procedure details: biochemical
Format: biochemical
Note to self: use true only for […]. coli readings below 8%; a reading exactly at 8% still gets false.

{"molecule": "COc1c(C)cc(Br)cc1C(=O)Nc1ccc(S(N)(=O)=O)cc1 [compound 032]", "measured on": "ecNadD (Escherichia coli (strain K12))", "group": "false"}
{"molecule": "O=c1cc(O)c2sc(Nc3cccc(Cl)c3)nc2[nH]1 [compound 047]", "measured on": "ecNadD (Escherichia coli (strain K12))", "group": "false"}
{"molecule": "O=S(=O)(Nc1nc2ccccc2s1)c1ccc(Cl)s1 [compound 284]", "measured on": "ecNadD (Escherichia coli (strain K12))", "group": "true"}
{"molecule": "NS(=O)(=O)c1ccc(NC(=S)NCCc2c[nH]c3ccccc23)cc1 [compound 206]", "measured on": "ecNadD (Escherichia coli (strain K12))", "group": "true"}
{"molecule": "COc1ccc(-c2csc(N)n2)cc1[N+](=O)[O-] [compound 138]", "measured on": "ecNadD (Escherichia coli (strain K12))", "group": "true"}

(Q) Lab note: […]. coli threshold 8%. Does this molecule come in strictly under it? O=C(O)CCCCCN1C(=O)c2ccc(F)cc2C1=O [compound 024]
(A) false

(Q) Input Nc1cc(=O)[nH]c(SCC(=O)Nc2ccc(S(N)(=O)=O)cc2)n1 [compound 164] ; condition: […]. coli strictly below 8%. Does it hold?
(A) true

(Q) is_below([…]. coli, 8%) for O=C(O)c1[nH]c2ccc(Cl)cc2c1-c1ccccc1 [compound 185] ?
(A) true

(Q) Say whether its […]. coli is strictly beneath 8%. Entry: CC(=O)Nc1ccc(NC(=O)CSc2nccc(O)n2)cc1 [compound 128]
(A) true

----------
measured on: baNadD (Bacillus anthracis)
procedure details: biochemical
Assay type: biochemical
run parameters: IC50 baNadD
pIC50 values for the compounds below.
// field semantics: pIC50 = negative decimal log of concentration (mol/L)

{"item smiles": "Nc1c(C(=O)Nc2ccc(F)c(F)c2)sc2nc(-c3cccs3)ccc12", "measured on": "baNadD (Bacillus anthracis)", "pIC50": 4.42}
{"item smiles": "Nc1c(C(=O)Nc2cccc(Cl)c2)sc2nc(-c3cccs3)ccc12", "measured on": "baNadD (Bacillus anthracis)", "pIC50": 4.82}

(Q) Identify pIC50 associated with the compound Nc1c(C(=O)Nc2ccc(F)cc2F)sc2nc(-c3cccs3)ccc12
(A) 4.74

----------
measured on: ecNadD (Escherichia coli (strain K12), UniProt P0A752)
procedure details: biochemical
Format: biochemical
[…]. coli strictly less than 8% = True. Otherwise False.

{"molecule": "Cc1ccc(F)cc1NC(=O)CSCC(=O)O", "measured on": "ecNadD (Escherichia coli (strain K12), UniProt P0A752)", "group": "False"}
{"molecule": "CC(Sc1ccccc1)C(=O)Nc1ccccc1C(=O)O (stereo not drawn)", "measured on": "ecNadD (Escherichia coli (strain K12), UniProt P0A752)", "group": "False"}
{"molecule": "O=C(Nc1ccc(O)cc1)c1ccc(Cl)c(Cl)c1", "measured on": "ecNadD (Escherichia coli (strain K12), UniProt P0A752)", "group": "False"}
{"molecule": "CSc1nc2nc(N)nc(N)c2s1", "measured on": "ecNadD (Escherichia coli (strain K12), UniProt P0A752)", "group": "True"}
{"molecule": "Nc1[nH][nH]c(=O)c1/N=N/c1ccccc1F", "measured on": "ecNadD (Escherichia coli (strain K12), UniProt P0A752)", "group": "True"}

(Q) # TODO verify […]. coli < 8% strictly for this molecule: S=C(N/N=C/c1ccccc1Cl)Nc1cc(Cl)ccc1Cl
(A) False

(Q) Does the reported […]. coli of the following molecule sit strictly below 8%? Nc1nnc(SCC(=O)Nc2ccc(Cl)c(Cl)c2)s1
(A) True

(Q) State whether 8% exceeds […]. coli recorded for CSc1sc(C(=O)O)c(I)c1S(=O)(=O)C(C)C .
(A) True

(Q) For O=c1/c(=C/c2ccc(O)cc2)sc2nc3cc(Br)cnc3n12 , is the recorded […]. coli below the cut-off of 8%?
(A) False

(Q) Please check: […]. coli for CC(=O)Nc1ccc(NS(=O)(=O)c2ccc(O)c(C(=O)O)c2)cc1 , strictly under 8% or not?
(A) False
